Target: PfProRS (Plasmodium falciparum)
Construct: B2, AA7–746 (minus 6 amino acids, or 99% of the ORF); made in house; host or cells: E. coli BL21(DE3)R3 Rosetta Oxford
Sequence (Q8I5R7 7-746): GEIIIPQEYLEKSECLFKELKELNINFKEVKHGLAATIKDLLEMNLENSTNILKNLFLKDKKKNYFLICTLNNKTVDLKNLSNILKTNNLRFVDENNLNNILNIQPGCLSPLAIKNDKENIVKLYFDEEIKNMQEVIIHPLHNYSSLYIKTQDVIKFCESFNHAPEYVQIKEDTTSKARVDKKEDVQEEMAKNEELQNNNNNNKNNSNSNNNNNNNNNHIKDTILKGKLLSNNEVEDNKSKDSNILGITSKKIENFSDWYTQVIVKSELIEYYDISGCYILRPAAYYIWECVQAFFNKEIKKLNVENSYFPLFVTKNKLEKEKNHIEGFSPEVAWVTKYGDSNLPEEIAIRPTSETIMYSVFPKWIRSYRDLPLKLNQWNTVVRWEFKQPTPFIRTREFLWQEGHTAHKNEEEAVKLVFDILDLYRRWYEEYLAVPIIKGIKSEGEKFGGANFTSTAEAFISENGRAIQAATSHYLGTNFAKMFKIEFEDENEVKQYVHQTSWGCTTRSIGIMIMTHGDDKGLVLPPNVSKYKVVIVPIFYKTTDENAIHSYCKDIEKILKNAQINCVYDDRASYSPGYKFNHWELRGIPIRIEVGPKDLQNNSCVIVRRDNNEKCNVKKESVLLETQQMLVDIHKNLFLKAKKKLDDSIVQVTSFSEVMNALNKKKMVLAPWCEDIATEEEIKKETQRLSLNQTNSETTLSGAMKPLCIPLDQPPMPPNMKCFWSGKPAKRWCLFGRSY
Test: biochemical
Assay type: biochemical
Conditions: read-out: Pf ProRS IC50
MEASUREMENT NAME: IC50 (µM)

Cn1nc(C(F)(F)F)c(-c2ccc(F)cc2)c1NC(=O)Nc1cccc(F)c1 :: 8

1. Cn1nc(CCC#N)c(-c2ccc(F)cc2)c1NC(=O)Nc1ccc(F)cc1
2. Cn1nc(C(F)(F)F)c(-c2cccc(CCO)c2)c1NC(=O)Nc1ccc(F)cc1
Incoming: Quick one: lower IC50, 1 or 2 ? Choose, then provide that item's label.
Outgoing: 1
(1: 9 µM, 2: 13 µM)
